Recorded pIC50, one value per entry.
test system: HOP-62 multicell spheroids with HUVEC/MSC, viability; assay: Anticancer human tumor HOP-62 cell line growth inhibition [KRAS2]; conditions: curve of first compound; second compound 1 µM;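 further: viability read after a week of compound exposure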
pIC50: −log10 of the molar value.

{"Compound": "CCNC(=O)CC1N=C(c2ccc(Cl)cc2)c2cc(OC)ccc2-n2c(C)nnc21 (stereo not drawn) + C=CC(=O)N1CCN(c2nc(OCC3CCCN3C)nc3c2CCN(c2cccc4cccc(C)c24)C3)CC1CC#N", "pIC50": "> 7.50"}
{"Compound": "CCN1CCN(Cc2ccc(Nc3ncc(F)c(-c4cc(F)c5nc(C)n(C(C)C)c5c4)n3)nc2)CC1 + CNCc1ccccc1-c1csc(C(C)Nc2nc(C)nc3cc(OC)c(OC)cc23)c1", "pIC50": 6.59}
{"Compound": "O=C(c1cc(Cc2n[nH]c(=O)c3ccccc23)ccc1F)N1CCN(C(=O)C2CC2)CC1 + COc1cc2nc(C)nc(NC(C)c3cc(N)cc(C(F)(F)F)c3)c2cc1OC1CCOC1", "pIC50": "< 5.00"}

====

Parameter: viability, T/C. Scope: all listed entries.
tested on: HOP-62 multicell spheroids with HUVEC/MSC, viability; experiment: Anticancer human tumor HOP-62 cell line growth inhibition [KRAS2]; settings: second compound 0.0316 µM; first compound 0.316 µM; stronger effect = lower value;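 further: viability read after a week of compound exposure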;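 on viability, T/C: 100% = DMSO vehicle-treated spheroids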
Recorded Endpoint: viability, T/C (%)

{"Compound": "CC(=O)OC12COC1CC(O)C1(C)C(=O)C(O)C3=C(C)C(OC(=O)C(O)C(NC(=O)OC(C)(C)C)c4ccccc4)CC(O)(C(OC(=O)c4ccccc4)C21)C3(C)C (configuration not stated) + C=CC(=O)N1CCN(c2nc(OCC3CCCN3C)nc3c2CCN(c2cccc4cccc(C)c24)C3)CC1CC#N", "Measured On": "HOP-62 multicell spheroids with HUVEC/MSC, viability", "Units Label": "%", "Recorded Value": 28.6}
{"Compound": "Cn1nccc1Nc1nccc(-c2cc3c(s2)C(C)(C)N(CCN2CCOCC2)C3=O)n1 + C=CC(=O)N1CCN(c2nc(OCC3CCCN3C)nc3c2CCN(c2cccc4cccc(C)c24)C3)CC1CC#N", "Measured On": "HOP-62 multicell spheroids with HUVEC/MSC, viability", "Units Label": "%", "Recorded Value": 50.4}
{"Compound": "CC(C)NCC(C(=O)N1CCN(c2ncnc3c2C(C)CC3O)CC1)c1ccc(Cl)cc1 (configuration not stated) + C=CC(=O)N1CCN(c2nc(OCC3CCCN3C)nc3c2CCN(c2cccc4cccc(C)c24)C3)CC1CC#N", "Measured On": "HOP-62 multicell spheroids with HUVEC/MSC, viability", "Units Label": "%", "Recorded Value": 42.4}
{"Compound": "CCN1CCN(Cc2ccc(Nc3ncc(F)c(-c4cc(F)c5nc(C)n(C(C)C)c5c4)n3)nc2)CC1 + C=CC(=O)N1CCN(c2nc(OCC3CCCN3C)nc3c2CCN(c2cccc4cccc(C)c24)C3)CC1CC#N", "Measured On": "HOP-62 multicell spheroids with HUVEC/MSC, viability", "Units Label": "%", "Recorded Value": 52.4}
{"Compound": "O=C(c1cc(Cc2n[nH]c(=O)c3ccccc23)ccc1F)N1CCN(C(=O)C2CC2)CC1 + C=CC(=O)N1CCN(c2nc(OCC3CCCN3C)nc3c2CCN(c2cccc4cccc(C)c24)C3)CC1CC#N", "Measured On": "HOP-62 multicell spheroids with HUVEC/MSC, viability", "Units Label": "%", "Recorded Value": 102}
{"Compound": "COc1cc(Nc2ncc3c(n2)-c2ccc(Cl)cc2C(c2c(F)cccc2OC)=NC3)ccc1C(=O)O + C=CC(=O)N1CCN(c2nc(OCC3CCCN3C)nc3c2CCN(c2cccc4cccc(C)c24)C3)CC1CC#N", "Measured On": "HOP-62 multicell spheroids with HUVEC/MSC, viability", "Units Label": "%", "Recorded Value": 32.6}
{"Compound": "CC1(C)CCC(CN2CCN(c3ccc(C(=O)NS(=O)(=O)c4ccc(NCC5CCOCC5)c([N+](=O)[O-])c4)c(Oc4cnc5[nH]ccc5c4)c3)CC2)=C(c2ccc(Cl)cc2)C1 + C=CC(=O)N1CCN(c2nc(OCC3CCCN3C)nc3c2CCN(c2cccc4cccc(C)c24)C3)CC1CC#N", "Measured On": "HOP-62 multicell spheroids with HUVEC/MSC, viability", "Units Label": "%", "Recorded Value": 54.9}
{"Compound": "CC1OCC2(CCN(c3cnc(Sc4ccnc(N)c4Cl)c(N)n3)CC2)C1N (configuration not stated) + C=CC(=O)N1CCN(c2nc(OCC3CCCN3C)nc3c2CCN(c2cccc4cccc(C)c24)C3)CC1CC#N", "Measured On": "HOP-62 multicell spheroids with HUVEC/MSC, viability", "Units Label": "%", "Recorded Value": 27}
{"Compound": "COc1cc2nccc(Oc3ccc(NC(=O)C4(C(=O)Nc5ccc(F)cc5)CC4)cc3)c2cc1OC + C=CC(=O)N1CCN(c2nc(OCC3CCCN3C)nc3c2CCN(c2cccc4cccc(C)c24)C3)CC1CC#N", "Measured On": "HOP-62 multicell spheroids with HUVEC/MSC, viability", "Units Label": "%", "Recorded Value": 64}
{"Compound": "CC1COCCN1c1cc(-c2ccnn2C)c2ccnc(-c3ccn[nH]3)c2n1 (configuration not stated) + C=CC(=O)N1CCN(c2nc(OCC3CCCN3C)nc3c2CCN(c2cccc4cccc(C)c24)C3)CC1CC#N", "Measured On": "HOP-62 multicell spheroids with HUVEC/MSC, viability", "Units Label": "%", "Recorded Value": 17.6}
{"Compound": "COC(=O)c1ccc2c(C(=Nc3ccc(N(C)C(=O)CN4CCN(C)CC4)cc3)c3ccccc3)c(O)[nH]c2c1 + C=CC(=O)N1CCN(c2nc(OCC3CCCN3C)nc3c2CCN(c2cccc4cccc(C)c24)C3)CC1CC#N", "Measured On": "HOP-62 multicell spheroids with HUVEC/MSC, viability", "Units Label": "%", "Recorded Value": 28.2}
{"Compound": "CCNC(=O)CC1N=C(c2ccc(Cl)cc2)c2cc(OC)ccc2-n2c(C)nnc21 (configuration not stated) + C=CC(=O)N1CCN(c2nc(OCC3CCCN3C)nc3c2CCN(c2cccc4cccc(C)c24)C3)CC1CC#N", "Measured On": "HOP-62 multicell spheroids with HUVEC/MSC, viability", "Units Label": "%", "Recorded Value": 34.6}
